# assayed_target: HIF-PH2 (EGLN1) (Homo sapiens, UniProt Q9GZT9)
# Construct: made in house; host or cells: insect Hi5 cells
# Sequence (Q9GZT9 whole entry): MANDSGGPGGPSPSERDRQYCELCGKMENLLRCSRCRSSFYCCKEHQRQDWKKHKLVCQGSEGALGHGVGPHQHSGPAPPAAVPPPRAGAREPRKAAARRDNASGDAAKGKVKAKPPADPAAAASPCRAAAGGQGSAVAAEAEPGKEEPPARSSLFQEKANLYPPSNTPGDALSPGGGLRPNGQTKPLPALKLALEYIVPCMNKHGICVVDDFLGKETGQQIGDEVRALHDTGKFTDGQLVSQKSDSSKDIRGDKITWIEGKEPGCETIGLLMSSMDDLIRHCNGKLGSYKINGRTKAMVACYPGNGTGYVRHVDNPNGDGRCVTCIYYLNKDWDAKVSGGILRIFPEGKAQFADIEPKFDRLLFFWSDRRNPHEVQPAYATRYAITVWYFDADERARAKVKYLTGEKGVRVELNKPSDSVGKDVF
# method: HIF-PH assay (14CO2 capture, peptide-dependent turnover)
# Assay type: biochemical
# experimental_context: compound concentration 50 μM
We begin with a simple list: items and their reported inhibition at 50 µM.
Report the figure in % without appending any unit label.

> print(dat)
                                   compound  readout.value
1  O=C(O)CNC(=O)c1c(O)c2ccc(-c3ccc(F)cc3)cc2sc1=O           99.7
2  O=C(O)CNC(=O)c1c(O)c2ccc(-c3ccccc3)cc2sc1=O           96.8
3  O=C(O)CNC(=O)c1c(O)c2ccc(-c3cncc(F)c3)cc2sc1=O           95.4

Q) Under HIF-PH2 (EGLN1) (Homo sapiens, UniProt Q9GZT9), report inhibition at 50 µM for O=C(O)CNC(=O)c1c(O)c2cc(Cl)cc(Cc3ccccc3)c2sc1=O
A) 100

Q) Under HIF-PH2 (EGLN1) (Homo sapiens, UniProt Q9GZT9), report inhibition at 50 µM for COc1ccc2c(O)c(C(=O)NCC(=O)O)c(=O)sc2c1
A) 97.3

Q) Under HIF-PH2 (EGLN1) (Homo sapiens, UniProt Q9GZT9), report inhibition at 50 µM for O=C(O)CNC(=O)c1c(O)c2cccc(-c3cccnc3)c2sc1=O
A) 98.8

Q) Under HIF-PH2 (EGLN1) (Homo sapiens, UniProt Q9GZT9), report inhibition at 50 µM for O=C(O)CNC(=O)c1c(O)c2cc(NC(=O)c3ccccc3)ccc2sc1=O
A) 100

Q) Under HIF-PH2 (EGLN1) (Homo sapiens, UniProt Q9GZT9), report inhibition at 50 µM for C[C@H](NC(=O)c1c(O)c2cc(Cl)ccc2sc1=O)C(=O)O
A) 95.6

Value source: patent US9149476B2
